Source of measurements: ChEMBL document CHEMBL1128190

# test.description: Cell adhesion measured using the inhibitory concentration against Human umbilical vein endothelial cell (HUVEC) activation, with Na51CrO4 as radioligand at 100 uM
# Type: functional
measured.attribute: inhibition at 100 µM

Some compounds with recorded inhibition at 100 µM:
>>> df
                            compound_smiles    measured_attribute  experimental_result
0       COc1ccc2sc(C(N)=O)c(OCc3ccccc3)c2c1  inhibition at 100 µM                  57%
1               COc1ccc2sc(C(N)=O)c(SC)c2c1  inhibition at 100 µM                  81%
2  CC(C)Oc1c(C(N)=O)sc2ccc([N+](=O)[O-])cc12  inhibition at 100 µM                  40%
3               CC(C)Sc1c(C(N)=O)sc2ccccc12  inhibition at 100 µM                  34%
4               CC(C)Oc1c(C(N)=O)oc2ccccc12  inhibition at 100 µM                  20%
5   COc1ccc2oc(C(=O)Nc3ccccc3)c(OC(C)C)c2c1  inhibition at 100 µM                 < 4%

Query compound follows.
Which inhibition at 100 µM is reported for this compound? CC(C)Oc1c(C(N)=O)sc2ccccc12
60%
